Source: paper PMC12562781

- Tested on: human prostate cancer cell lines (PC3)
- assay_overview: MTT cytotoxicity assay, PC3 cells
- condition_details: read-out: IC50 Values, cytotoxicity, PC3; MTT, 24 h, 0.156 µM to 10 µM, triplicate
quantity_name: IC50 (nM)
Numbers only, in nM.

Report IC50 for C[C@H]1[C@H](C)CC[C@]2(C(=O)O)CC[C@]3(C)C(=CC[C@@H]4[C@@]5(C)CC[C@H](O)C(C)(C)[C@@H]5CC[C@]43C)[C@H]12 please.
262

* * *

- assay_overview: MTT cytotoxicity assay, KMST-6 cells
- Type: cell-based, human
- condition_details: human, KMST-6 non-cancerous fibroblast cells; MTT, 24 h, 0.156 µM to 10 µM, triplicate; non-cancerous cells; read-out: IC50 Values, cytotoxicity, KMST-6
- Protocol: Assays were performed in triplicate to ensure reproducibility. […] B is the absorbance of the treated cells. Each compound was run in triplicate.
quantity_name: IC50 at 24 h (µM)
Numbers only, in µM.

Report IC50 at 24 h for CC1(C)CC[C@]2(C(=O)O)CC[C@]3(C)C(=CC[C@@H]4[C@@]5(C)CC[C@H](O)C(C)(C)[C@@H]5CC[C@]43C)[C@@H]2C1 please.
3.88
